studySystem: BvPgb 1.2 C86A mutant
testDescription: Isothermal spectral shift (SpS) gas-binding titration, Monolith X, RED-NHS-labeled protein
Parameters: species or system Beta vulgaris
testSettings: first transition of biphasic dose-response, read-out: EC50, CO binding, first transition
pEC50: −log10 of the molar value.
measureName: pEC50

Please tell me the measured pEC50 for [C-]#[O+] [CO, carbon monoxide] ; system: BvPgb 1.2 C86A mutant.
~6.30

---

studySystem: BvPgb 1.2
testDescription: Flash photolysis and stopped-flow rapid mixing; KD calculated per Equation (3)
Assay type: binding, Beta vulgaris
testSettings: rWT; calculated per Equation (3) KD,obs=koff(1+KH)/kon from kinetic parameters of ref 30; read-out: KD(CO, open), Flash Photolysis and Stopped-Flow Rapid Mixing
measureName: Kd

Please tell me the measured Kd for [C-]#[O+] [CO, carbon monoxide] ; system: BvPgb 1.2.
~100 µM

Every entry's value here was drawn from paper PMC12428610.
